Provenance of the data: ChEMBL document CHEMBL1146367

assay: Dissociation constant, pKa of the compound; assay type: physicochemical
OBSERVABLE: pKa

Write down pKa measured for item CN(C)CCSCc1csc(C(=O)Nc2ccc(Cl)cc2C(=O)Nc2ccc(Cl)cc2)c1Cl 8.9

---

biological target: Coagulation factor X (Homo sapiens)
OBSERVABLE: Ki
Reply with the number, then its unit.

Illustrative cases are given below, each with its answer.
>  <CHEMICAL STRUCTURE>
O=C(Nc1ccc(Cl)cc1)c1cc(Cl)ccc1NC(=O)c1scc(Cn2nccn2)c1Cl

>  <ASSAYED TARGET>
Coagulation factor X (Homo sapiens)

>  <Ki>
3.5 nM

$$$$
>  <CHEMICAL STRUCTURE>
CN(C)CCSCc1csc(C(=O)Nc2ccc(Cl)cc2C(=O)Nc2ccc(Cl)cc2)c1Cl

>  <ASSAYED TARGET>
Coagulation factor X (Homo sapiens)

>  <Ki>
2.7 nM

$$$$

Could you now look at the following compound, please?
Write down Ki measured for item O=C(Nc1ccc(Cl)cc1)c1cc(Cl)ccc1NC(=O)c1scc(CN2CCSCC2)c1Cl 4.8 nM

---

target: Coagulation factor X (Homo sapiens, UniProt P00742)
Sequence (P00742 41-179 limits assumed): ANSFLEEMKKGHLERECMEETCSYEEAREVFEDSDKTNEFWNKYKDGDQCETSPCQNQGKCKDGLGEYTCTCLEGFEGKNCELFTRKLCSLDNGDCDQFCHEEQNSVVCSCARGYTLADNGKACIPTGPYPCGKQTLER
Sequence (P00742 235-488 limits assumed): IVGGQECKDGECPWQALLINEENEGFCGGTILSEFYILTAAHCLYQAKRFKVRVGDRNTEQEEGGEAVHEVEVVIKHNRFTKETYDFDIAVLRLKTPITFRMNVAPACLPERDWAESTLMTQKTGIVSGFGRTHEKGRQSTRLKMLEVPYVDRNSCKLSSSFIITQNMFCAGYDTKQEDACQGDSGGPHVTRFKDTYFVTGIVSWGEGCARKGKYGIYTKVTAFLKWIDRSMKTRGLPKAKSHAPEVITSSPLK
pKi: −log10 of the molar value.
Returns true if the recorded pKi is greater than or equal to 9, and false otherwise.

Completed entries (count: 7):
>  <COMPOUND>
O=C(Nc1ccc(Cl)cc1)c1cc(Cl)ccc1NC(=O)c1scc(CNCCOCCO)c1Cl

>  <CATEGORY>
false

$$$$
>  <COMPOUND>
CN1CCC(N(C)Cc2csc(C(=O)Nc3ccc(Cl)cc3C(=O)Nc3ccc(Cl)cc3)c2Cl)CC1

>  <CATEGORY>
true

$$$$
>  <COMPOUND>
CN(CCN1CCCC1)Cc1csc(C(=O)Nc2ccc(Cl)cc2C(=O)Nc2ccc(Cl)cc2)c1Cl

>  <CATEGORY>
true

$$$$
>  <COMPOUND>
O=C(Nc1ccc(Cl)cc1)c1cc(Cl)ccc1NC(=O)c1scc(COCC(O)CO)c1Cl (centres undefined)

>  <CATEGORY>
false

$$$$
>  <COMPOUND>
CC(=O)N1CCN(Cc2csc(C(=O)Nc3ccc(Cl)cc3C(=O)Nc3ccc(Cl)cc3)c2Cl)CC1

>  <CATEGORY>
false

$$$$
>  <COMPOUND>
CC1(C)OCC(COCc2csc(C(=O)Nc3ccc(Cl)cc3C(=O)Nc3ccc(Cl)cc3)c2Cl)O1 (centres undefined)

>  <CATEGORY>
false

$$$$
>  <COMPOUND>
COCCOCc1csc(C(=O)Nc2ccc(Cl)cc2C(=O)Nc2ccc(Cl)cc2)c1Cl

>  <CATEGORY>
false

$$$$

Shift focus to the following entry.
Is pKi for CN1CCN(Cc2cc(Cl)c(C(=O)Nc3ccc(Cl)cc3C(=O)Nc3ccc(Cl)cc3)s2)CC1 at or above 9? false

---

test: Binding affinity to bovine trypsin after 10 mins; set-up: species or system Bos taurus; conditions: read-out: Ki app
OBSERVABLE: Ki

>  <COMPOUND>
CN(Cc1csc(C(=O)Nc2ccc(Cl)cc2C(=O)Nc2ccc(Cl)cc2)c1Cl)CC(O)CO (stereo not drawn)

>  <RECORDED MEASUREMENT>
> 5 µM

$$$$
>  <COMPOUND>
O=C(Nc1ccc(Cl)cc1)c1cc(Cl)ccc1NC(=O)c1sc2ccccc2c1Cl

>  <RECORDED MEASUREMENT>
> 5 µM

$$$$

Could you now look at the following compound, please?
Write down Ki measured for item O=C(Nc1ccc(Cl)cc1)c1cc(Cl)ccc1NC(=O)c1scc(Cn2ncnn2)c1Cl > 5 µM

---

assay: Bioavailability in Beagle dog at 10 mg/kg, po; format: ADME, organism-based, Canis lupus familiaris; conditions: in vivo
OBSERVABLE: bioavailability (%)
The reply should be a number in %, with the unit left off.

Write down bioavailability measured for item CN1CCN(Cc2csc(C(=O)Nc3ccc(Cl)cc3C(=O)Nc3ccc(Cl)cc3)c2Cl)CC1 41

---

test: Plasma concentration in Beagle dog at 10 mg/kg, po; format: ADME, organism-based, Canis lupus familiaris; parameters: dose 10 mg/kg, route oral
OBSERVABLE: Cmax

Write down Cmax measured for item CN1CCN(Cc2csc(C(=O)Nc3ccc(Cl)cc3C(=O)Nc3ccc(Cl)cc3)c2Cl)CC1 6.3 µM

---

assay: Binding affinity to bovine trypsin after 10 mins; parameters: species or system Bos taurus; conditions: read-out: Ki app
OBSERVABLE: Ki

Illustrative cases are given below, each with its answer.
>  <MOLECULE>
O=C(Nc1ccc(Cl)cc1)c1cc(Cl)ccc1NC(=O)c1scc(CNCCCn2ccnc2)c1Cl

>  <RECORDED MEASUREMENT>
> 5 µM

$$$$
>  <MOLECULE>
O=C(Nc1ccc(Cl)cc1)c1cc(Cl)ccc1NC(=O)c1scc(Cn2nccn2)c1Cl

>  <RECORDED MEASUREMENT>
> 5 µM

$$$$

Write down Ki measured for item CC1(C)OCC(COCc2csc(C(=O)Nc3ccc(Cl)cc3C(=O)Nc3ccc(Cl)cc3)c2Cl)O1 (stereo not drawn) > 5 µM

Write down Ki measured for item O=C(Nc1ccc(Cl)cc1)c1cc(Cl)ccc1NC(=O)c1scc(Cn2ccnc2)c1Cl > 5 µM

Write down Ki measured for item CN(CCN1CCCC1)Cc1csc(C(=O)Nc2ccc(Cl)cc2C(=O)Nc2ccc(Cl)cc2)c1Cl > 5 µM

Write down Ki measured for item O=C(Nc1ccc(Cl)cc1)c1cc(Cl)ccc1NC(=O)c1scc(Cn2cccn2)c1Cl > 5 µM

Write down Ki measured for item Cc1c(CN2CCN(C)CC2)sc(C(=O)Nc2ccc(Cl)cc2C(=O)Nc2ccc(Cl)cc2)c1Cl > 5 µM

Write down Ki measured for item O=C(Nc1ccc(Cl)cc1)c1cc(Cl)ccc1NC(=O)c1scc(Cn2cncn2)c1Cl > 5 µM

---

Recorded below: pKi, system Prothrombin (Homo sapiens, UniProt P00734).
# reply with the number alone; pKi is -log10 of concentration in mol/L

>  <CHEMICAL STRUCTURE>
O=C(Nc1ccc(Cl)cc1)c1cc(Cl)ccc1NC(=O)c1scc(Cn2cccn2)c1Cl

>  <pKi>
6.26

$$$$

Write down pKi measured for item O=C(Nc1ccc(Cl)cc1)c1cc(Cl)ccc1NC(=O)c1sc(Cn2ccnc2)cc1Cl 6.29

---

assay: Volume of distribution at steady state in Beagle dog at 1 mg/kg, iv; type: ADME, organism-based, Canis lupus familiaris; design: dose 1 mg/kg, route intravenous; conditions: in vivo, read-out: Vdss
OBSERVABLE: Vd (L/kg)
The reply should be a number in L/kg, with the unit left off.

Write down Vd measured for item CN1CCN(Cc2csc(C(=O)Nc3ccc(Cl)cc3C(=O)Nc3ccc(Cl)cc3)c2Cl)CC1 0.7

---

target: Coagulation factor X (Homo sapiens, UniProt P00742); assay: Binding affinity to human factor 10a after 10 mins; details: read-out: Ki app
OBSERVABLE: pKi
# reply with the number alone; pKi is -log10 of concentration in mol/L

Specify pKi for Cc1csc(C(=O)Nc2ccc(Cl)cc2C(=O)Nc2ccc(Cl)cc2)c1Cl , system Coagulation factor X (Homo sapiens, UniProt P00742). 7.74

Specify pKi for CN(C)Cc1c(C(=O)Nc2ccc(Cl)cc2C(=O)Nc2ccc(Cl)cc2)sc2ccccc12 , system Coagulation factor X (Homo sapiens, UniProt P00742). 8.05

Specify pKi for O=C(Nc1ccc(Cl)cc1)c1cc(Cl)ccc1NC(=O)c1scc(Cn2ccnc2)c1Cl , system Coagulation factor X (Homo sapiens, UniProt P00742). 8.72

Specify pKi for O=C(Nc1ccc(Cl)cc1)c1cc(Cl)ccc1NC(=O)c1scc(Cn2cccn2)c1Cl , system Coagulation factor X (Homo sapiens, UniProt P00742). 8.68

---

Recorded below: pKi, system Prothrombin (Homo sapiens, UniProt P00734).
# reply with the number alone; pKi is -log10 of concentration in mol/L

Illustrative cases are given below, each with its answer.
>  <COMPOUND>
CN(C)Cc1c(C(=O)Nc2ccc(Cl)cc2C(=O)Nc2ccc(Cl)cc2)sc2ccccc12

>  <ASSAYED TARGET>
Prothrombin (Homo sapiens, UniProt P00734)

>  <pKi>
5.92

$$$$
>  <COMPOUND>
O=C(Nc1ccc(Cl)cc1)c1cc(Cl)ccc1NC(=O)c1scc(COCC(O)CO)c1Cl (stereo not given)

>  <ASSAYED TARGET>
Prothrombin (Homo sapiens, UniProt P00734)

>  <pKi>
5.62

$$$$
>  <COMPOUND>
O=C(Nc1ccc(Cl)cc1)c1cc(Cl)ccc1NC(=O)c1scc(CNCCCn2ccnc2)c1Cl

>  <ASSAYED TARGET>
Prothrombin (Homo sapiens, UniProt P00734)

>  <pKi>
5.74

$$$$
>  <COMPOUND>
O=C(Nc1ccc(Cl)cc1)c1cc(Cl)ccc1NC(=O)c1scc(Cn2ccnc2)c1Cl

>  <ASSAYED TARGET>
Prothrombin (Homo sapiens, UniProt P00734)

>  <pKi>
6.00

$$$$
>  <COMPOUND>
Cc1c(CN2CCN(C)CC2)sc(C(=O)Nc2ccc(Cl)cc2C(=O)Nc2ccc(Cl)cc2)c1Cl

>  <ASSAYED TARGET>
Prothrombin (Homo sapiens, UniProt P00734)

>  <pKi>
5.82

$$$$

Write down pKi measured for item CN(C)CCN(C)Cc1csc(C(=O)Nc2ccc(Cl)cc2C(=O)Nc2ccc(Cl)cc2)c1Cl 6.80

Write down pKi measured for item CN(Cc1csc(C(=O)Nc2ccc(Cl)cc2C(=O)Nc2ccc(Cl)cc2)c1Cl)CC(O)CO (stereo not given) 6.00

Write down pKi measured for item O=C(Nc1ccc(Cl)cc1)c1cc(Cl)ccc1NC(=O)c1scc(Cn2ccnn2)c1Cl 5.57
